System: mouse liver microsomes, metabolic half-life
Protocol notes: qHTS Assay for Inhibitors of Bacillus subtilis Sfp phosphopantetheinyl transferase (PPTase): Mouse Liver Microsome Stability (Half Time)
Measurement kind: microsomal half-life

> print(dat)
                           substance.smiles                               test.system    result
1  COc1ccnc(NC(=S)N2CCN(c3ncc(C(F)(F)F)cc3Cl)CC2)c1  mouse liver microsomes, metabolic half-life  49.5 min
